FYI, the data here is from patent US20230049752A1.

target: human Claudin-6 (CLDN6) (human) (UniProt P56747); experiment: FACS titration of labelled mAb on ARK2 cells (endogenous CLDN6+)
recordedEndpoint: EC50

{"columns": ["binder", "result"],
 "data": [
  ["AB6 (antibody, V domains shown, full-length IgG (ExpiCHO)) VH: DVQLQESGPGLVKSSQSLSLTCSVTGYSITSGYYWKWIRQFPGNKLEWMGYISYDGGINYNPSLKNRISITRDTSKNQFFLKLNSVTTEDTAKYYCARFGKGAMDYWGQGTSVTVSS VL: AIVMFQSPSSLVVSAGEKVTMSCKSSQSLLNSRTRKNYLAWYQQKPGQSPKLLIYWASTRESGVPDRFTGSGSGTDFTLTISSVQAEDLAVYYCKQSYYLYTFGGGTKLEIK", "765 nM"]
]}

The following binders each have a reported value; give each one's EC50.
1. AB7 (antibody, V domains shown, full-length IgG (ExpiCHO)) VH: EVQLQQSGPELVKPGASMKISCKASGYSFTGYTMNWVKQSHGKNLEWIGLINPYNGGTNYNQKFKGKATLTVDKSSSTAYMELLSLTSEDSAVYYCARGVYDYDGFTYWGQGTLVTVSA VL: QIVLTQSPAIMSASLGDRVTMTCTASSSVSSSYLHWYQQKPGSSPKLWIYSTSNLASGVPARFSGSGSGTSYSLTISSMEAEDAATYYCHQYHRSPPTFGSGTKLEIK
2. AB5 (antibody, V domains shown, full-length IgG (ExpiCHO)) VH: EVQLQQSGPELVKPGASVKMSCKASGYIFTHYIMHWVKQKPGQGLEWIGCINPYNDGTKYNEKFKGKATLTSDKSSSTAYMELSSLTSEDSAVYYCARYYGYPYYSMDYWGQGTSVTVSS VL: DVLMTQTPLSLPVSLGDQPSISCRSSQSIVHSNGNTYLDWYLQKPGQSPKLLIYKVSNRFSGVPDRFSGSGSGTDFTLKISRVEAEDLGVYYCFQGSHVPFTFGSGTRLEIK

OUTPUT:
353 nM
8 nM
